Where do the numbers come from? From PubChem BioAssay AID1963860.

Tested on: CN0375-F725-PDC KRAS spheroid viability
measurement-notes: Anticancer human tumor CN0375-F725-PDC patient-derived colon carcinoma cell line growth inhibition [KRAS2]
experimental-setup: second compound 0.0316 µM; first compound 0.1 µM; stronger effect = lower value; spheroids with HUVEC and MSC
Description: Multicellular complex tumor spheroid response to RAS pathway inhibitors in combination with a targeted agents in patient-derived cell lines with oncogenic KRAS variants from multiple cancer types A high-throughput screen of multi-cell type tumor spheroids was designed to identify active combinations of targeted small molecules and KRAS pathway inhibitors. […] Compounds. […] If the clinical Cmax for an agent had not been determined, the highest concentration tested was 10 microM. […]
Measured viability, T/C by item
measure-name: viability, T/C

molecule: CC1(C)CCC(CN2CCN(c3ccc(C(=O)NS(=O)(=O)c4ccc(NCC5CCOCC5)c([N+](=O)[O-])c4)c(Oc4cnc5[nH]ccc5c4)c3)CC2)=C(c2ccc(Cl)cc2)C1 + C=CC(=O)N1CCN(c2nc(OCC3CCCN3C)nc3c2CCN(c2cccc4cccc(C)c24)C3)CC1CC#N
measure-name: viability, T/C
reported: 102%
--
molecule: CN(C)C/C=C/C(=O)Nc1cc2c(Nc3ccc(F)c(Cl)c3)ncnc2cc1O[C@H]1CCOC1 + C=CC(=O)N1CCN(c2nc(OCC3CCCN3C)nc3c2CCN(c2cccc4cccc(C)c24)C3)CC1CC#N
measure-name: viability, T/C
reported: 76.4%

----------
System: CN0375-F725-PDC KRAS spheroid viability
measurement-notes: Anticancer human tumor CN0375-F725-PDC cell line growth inhibition [KRAS2];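 note: spheroids exposed to agents for 7 days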
experimental-setup: second compound 0.316 µM; first compound 0.316 µM; stronger effect = lower value; spheroids with HUVEC and MSC

molecule: COC(=O)c1ccc2c(C(=Nc3ccc(N(C)C(=O)CN4CCN(C)CC4)cc3)c3ccccc3)c(O)[nH]c2c1 + C=CC(=O)N1CCN(c2nc(=O)n(-c3c(C)ccnc3C(C)C)c3nc(-c4c(O)cccc4F)c(F)cc23)C(C)C1
viability, T/C: 93.8%
--
molecule: COc1cc(Nc2ncc3c(n2)-c2ccc(Cl)cc2C(c2c(F)cccc2OC)=NC3)ccc1C(=O)O + C=CC(=O)N1CCN(c2nc(OCC3CCCN3C)nc3c2CCN(c2cccc4cccc(C)c24)C3)CC1CC#N
viability, T/C: 94.8%
--
molecule: COc1cc(Nc2ncc3c(n2)-c2ccc(Cl)cc2C(c2c(F)cccc2OC)=NC3)ccc1C(=O)O + COc1cc2nc(C)nc(NC(C)c3cc(N)cc(C(F)(F)F)c3)c2cc1OC1CCOC1
viability, T/C: 90.5%
--
molecule: COc1cc2nccc(Oc3ccc(NC(=O)C4(C(=O)Nc5ccc(F)cc5)CC4)cc3)c2cc1OC + C=CC(=O)N1CCN(c2nc(=O)n(-c3c(C)ccnc3C(C)C)c3nc(-c4c(O)cccc4F)c(F)cc23)C(C)C1
viability, T/C: 92%
--
molecule: COc1cc2nccc(Oc3ccc(NC(=O)C4(C(=O)Nc5ccc(F)cc5)CC4)cc3)c2cc1OC + CC1OCC2(CCN(c3cnc(Sc4ccnc(N)c4Cl)c(N)n3)CC2)C1N
viability, T/C: 85.9%

----------
Tested on: CN0375-F725-PDC KRAS spheroid viability
measurement-notes: Anticancer human tumor CN0375-F725-PDC cell line growth inhibition [KRAS2];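 note: spheroids exposed to agents for 7 days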
experimental-setup: curve of first compound; second compound 10 µM; spheroids with HUVEC and MSC
Each entry below lists one item and its recorded IC50 value.

compound: O=C(c1cc(Cc2n[nH]c(=O)c3ccccc23)ccc1F)N1CCN(C(=O)C2CC2)CC1 + COc1cc2nc(C)nc(NC(C)c3cc(N)cc(C(F)(F)F)c3)c2cc1OC1CCOC1
tgt: CN0375-F725-PDC KRAS spheroid viability
IC50: > 10000 nM
//
compound: COc1cc(Nc2ncc3c(n2)-c2ccc(Cl)cc2C(c2c(F)cccc2OC)=NC3)ccc1C(=O)O + C=CC(=O)N1CCN(c2nc(=O)n(-c3c(C)ccnc3C(C)C)c3nc(-c4c(O)cccc4F)c(F)cc23)C(C)C1
tgt: CN0375-F725-PDC KRAS spheroid viability
IC50: > 10000 nM
//
compound: CC1OCC2(CCN(c3cnc(Sc4ccnc(N)c4Cl)c(N)n3)CC2)C1N (stereo not given) + CNCc1ccccc1-c1csc(C(C)Nc2nc(C)nc3cc(OC)c(OC)cc23)c1
tgt: CN0375-F725-PDC KRAS spheroid viability
IC50: < 31.6 nM
//
compound: CC1(C)CCC(CN2CCN(c3ccc(C(=O)NS(=O)(=O)c4ccc(NCC5CCOCC5)c([N+](=O)[O-])c4)c(Oc4cnc5[nH]ccc5c4)c3)CC2)=C(c2ccc(Cl)cc2)C1 + COc1cc2nc(C)nc(NC(C)c3cc(N)cc(C(F)(F)F)c3)c2cc1OC1CCOC1
tgt: CN0375-F725-PDC KRAS spheroid viability
IC50: < 31.6 nM
//
compound: Cn1nccc1Nc1nccc(-c2cc3c(s2)C(C)(C)N(CCN2CCOCC2)C3=O)n1 + C=CC(=O)N1CCN(c2nc(=O)n(-c3c(C)ccnc3C(C)C)c3nc(-c4c(O)cccc4F)c(F)cc23)C(C)C1
tgt: CN0375-F725-PDC KRAS spheroid viability
IC50: 674 nM
